assay.system: T1, marmoset IL-17F (marmoset, UniProt A6N6I9 31-163)
T1 sequence (looked up): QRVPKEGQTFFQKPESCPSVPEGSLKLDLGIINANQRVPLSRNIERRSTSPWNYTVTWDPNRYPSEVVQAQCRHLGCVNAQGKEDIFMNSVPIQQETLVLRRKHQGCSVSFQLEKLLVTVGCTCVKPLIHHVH
assay.overview: ELISA, coated IL-17F;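 also: binding ELISA on coated antigen from various species, with bound Nanobodies revealed by an HRP-linked anti-myc antibody and esTMB substrate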
assay.readout: OD

Input: Give the measured OD of 04G01 (VHH, Class 2; also called IL17MS04G01) VHH: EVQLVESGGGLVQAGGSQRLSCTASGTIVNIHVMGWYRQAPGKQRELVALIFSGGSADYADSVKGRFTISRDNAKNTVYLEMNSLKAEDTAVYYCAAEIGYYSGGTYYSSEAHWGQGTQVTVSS .
Output: 0.0005 OD

Input: // same read-out, input: 09G10 (VHH, Class 2) VHH: EVQLVESGGGLVQAGGSLRLSCAASDSVFTAKAVGWYRQPPGLQREWVAIITSGGKTNYADSSVKGRFTVSVDKVKNTVTLQMNSLKPEDTAVYYCYAQWMGRDYWGQGTQVTVSS
Output: 0.0045 OD

Input: // same read-out, input: 16A04 (VHH, Class 3; also called IL17MS16A04) VHH: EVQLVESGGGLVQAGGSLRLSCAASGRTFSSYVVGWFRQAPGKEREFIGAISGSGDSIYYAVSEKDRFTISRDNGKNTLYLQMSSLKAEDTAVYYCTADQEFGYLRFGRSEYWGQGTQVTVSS
Output: 1.64 OD

Where these numbers come from: patent US20210130452A1
